Each entry below carries its reported activation factor.
# tgt: Luciferin 4-monooxygenase (Photinus pyralis)
# assay_info: FLuc activators, initial screening, artefact control for FLuc-dependent activation tests, biochemical, ATPlite luminescence (AID 1027)
# test_context: ATPlite luciferase biochemical, 10 min, at 10 µM, stronger effect = higher value, 0 = ATP-free wells, 1 = DMSO control
Fewer than 10 of roughly 200,000 compounds were called active. A selection follows.
reported_property: activation factor

1) CCOC(=O)Cc1csc(SCC(=O)NC(C)C23CC4CC(CC(C4)C2)C3)n1 (stereo not drawn): 1
2) O=C(CSc1ccccn1)Nc1nc2c(ccc3ccccc32)s1: 1.1
3) O=[N+]([O-])/C(N=Nc1ccccc1)=N\Nc1ccccc1: 1.1
4) CCN(CCCNC(=O)CCn1c(=O)[nH]c2ccsc2c1=O)c1ccccc1: 1
5) Cc1ccc2cc(CCNC(=O)c3ccc4c(c3)OCO4)c(=O)[nH]c2c1: 1.1
6) COc1cccc(NC(=O)C(Sc2nc3ccccc3c(=O)n2CC(C)C)c2ccccc2)c1 (stereo not drawn): 1
7) COc1ccc(CN2CCCC(C(=O)c3ccc(Cl)cc3)C2)cc1Cn1cncn1 (stereo not drawn): 1
8) CSc1nc(-c2ccccc2)nc(C(Cl)Cl)n1: 1.1
9) COc1ccc(CC(=O)N[C@@H](CCSC)c2nc3ccccc3[nH]2)cc1: 1.1
10) CCN(CC(=O)NCCc1ccccc1)S(=O)(=O)c1ccc(C)cc1: 1.1
11) CCn1cc(/C=C2/SC(=S)NC2=O)c(C)n1: 0.8
12) CCn1c(-c2ccncc2)n[nH]c1=S: 1
13) CCc1cccc2c(=O)c(C(=O)NCCCOC)c[nH]c12: 1
14) Oc1ccc(Br)cc1C=Nc1ccc2[nH]ncc2c1: 1
15) CCN(CC)CCNc1nc(-c2ccc(OC(F)F)cc2)c(C)s1: 1
16) COCCNC(=S)Nc1cc(S(=O)(=O)N2CCOCC2)ccc1N1CCCCC1: 1
17) COC(=O)C(C)N=Cc1ccccc1 (stereo not drawn): 1.1
18) Cc1ccc(NN=Nc2nc3c([nH]2)c(=O)n(C)c(=O)n3C)cc1: 1
19) CO/N=C(\N)c1ccc([N+](=O)[O-])cc1: 1.1
20) COc1ccc(C2=NN(c3nc4ccccc4s3)C(=O)C2)cc1: 0.4
21) Cc1ccc(N(CCC(=O)O)S(=O)(=O)c2cccc(C(F)(F)F)c2)cc1: 1
22) CC[C@H](C)[C@@H](C(=O)N1CCNCC1)n1cc([C@@H](N)Cc2ccc(O)cc2)nn1: 1.1
23) CC(C)OCCCNC(=O)c1ccc(C2SCC(=O)N2Cc2ccco2)cc1 (stereo not drawn): 1
